Tested on: LTK
setup conditions: concentration: 1 μM, replicates: in singlicate; n = 1;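 also: KINOMEscan kinase panel screen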
The label depends only on %Inh: Criterion met if it is at least 20%, Criterion not met if it is smaller.

> print(dat)
                                    compound  assigned.category
 1  Cl.Cl.NCC(NCc1ccc(-c2ccnc3[nH]ccc23)s1)c1ccccc1 (centres unmarked)      Criterion met
 2  O=C(O)C(F)(F)F.O=C(O)C(F)(F)F.O=c1[nH]ccc2nc(N[C@@H]3CCCNC3)nc(Nc3ccc(S(=O)(=O)N4CCOCC4)cc3)c12      Criterion met
 3  COCCOCCOc1cc2ncc3c4ccc(C#N)cc4[nH]c3c2cc1OC      Criterion met
 4  O=C(Nc1n[nH]c2nc(-c3ccc(O)cc3)ccc12)C1CC1      Criterion met
 5        Nc1ncnc2c1nc(-c1ccccc1)n2-c1ccccc1  Criterion not met
 6  COC(=O)Nc1nc2cc(Oc3ccc(NC(=O)Nc4cc(C(F)(F)F)ccc4F)cn3)ccc2[nH]1.Cl.Cl      Criterion met
 7  COc1ccc(Nc2nccc(NCCNC(=O)c3cc4ccccc4s3)n2)cc1  Criterion not met
 8  CCn1c(-c2nonc2N)nc2c(C#CC(C)(C)O)ncc(OCCCCN)c21.O=C(O)C(F)(F)F.O=C(O)C(F)(F)F  Criterion not met
 9  Cl.Cl.NCC(C(=O)Nc1cc(Br)c(-c2ccnc3[nH]ccc23)s1)c1ccccc1 (centres unmarked)  Criterion not met
10  CCCCc1nn2ncccc2c1-c1ccnc(Nc2ccc(N3CCN(C)CC3)cc2)n1  Criterion not met
11  CC(=O)Nc1nc2cnc(Nc3cc(NC(=O)c4cccc(C5(C#N)CC5)c4Cl)ccc3C)nc2s1  Criterion not met
12  CN1CCN(CCCNc2nccc(-c3c(-c4ccc(F)cc4)nn4cc(C(F)(F)F)ccc34)n2)CC1  Criterion not met
13  COC(=O)Nc1nc2ccc(Oc3ccc(NC(=O)Nc4cc(C(F)(F)F)ccc4F)cc3)cc2n1C.Cl      Criterion met
14  Cc1occc1-c1ncc(OC[C@@H](N)Cc2c[nH]c3ccccc23)cc1-c1ccc2[nH]nc(C)c2c1.O=C(O)C(F)(F)F      Criterion met
15  CC(=O)N1CCN(c2ccc(Nc3nccc(-c4sc(C(C)C)nc4-c4cccc(NS(=O)(=O)c5cccc(Cl)c5)c4)n3)cn2)CC1      Criterion met
16  CCn1c(-c2nonc2N)nc2c(C#CC(C)(C)O)nc(OC[C@H](N)c3ccccc3)cc21  Criterion not met
17  O=C(Nc1cccc(-c2nn3ccccc3c2-c2ccnc(Nc3cccc(F)c3)n2)c1)c1c(F)ccc(F)c1Cl  Criterion not met
18  COc1ccc(CNC(=O)NC2CCN(c3ccnc(Nc4ccc(F)cc4)n3)CC2)cc1  Criterion not met
19            Oc1cc(Nc2ccnc3cc(I)ccc23)ccc1F  Criterion not met
20  Cl.c1ccc(-c2ccc3c(Nc4ccc5[nH]ncc5c4)ccnc3c2)nc1  Criterion not met

---

Listed here: items and their measured %Inh.
System: WEE2
setup conditions: concentration: 1 μM, replicates: in singlicate; n = 1
quantity name: %Inh (%)

> print(dat)
                                    compound  system.name  recorded.measurement
 1  COc1cccc(NC(=O)NC2CCN(c3ccnc(Nc4cc(OC)c(OC)c(OC)c4)n3)C2)c1 (stereo not shown)         WEE2                     0
 2  O=C(O)C(F)(F)F.O=C(O)C(F)(F)F.O=c1[nH]ccc2nc(N[C@@H]3CCCNC3)nc(Nc3ccc(S(=O)(=O)N4CCOCC4)cc3)c12         WEE2                    13
 3  Cn1cc(-c2ccc3c(c2)CCN3C(=O)Cc2cccc(Cl)c2)c2c(N)ncnc21         WEE2                     0
 4  Clc1ccc(-c2nn3ncccc3c2-c2ccnc(Nc3ccc4c(c3)OCCO4)n2)cc1         WEE2                     0
 5  Cc1ccc(F)c(C(=O)Nc2cccc(-c3nn4ccccc4c3-c3ccnc(Nc4cccc(F)c4)n3)c2)c1F         WEE2                    11
 6  Nc1ncc(-c2ccc3nccc(-c4ccncc4)c3c2)cc1S(=O)(=O)N1CCOCC1         WEE2                     3
 7  COc1cc(Nc2ncc3c(C)nc(-c4cc5ccccc5[nH]4)n3n2)cc(OC)c1OC         WEE2                    85
 8        Nc1ncnc2c1nc(-c1ccccc1)n2-c1ccccc1         WEE2                     0
 9  COc1ccc(CNC(=O)NC2CCN(c3ccnc(Nc4ccc(F)cc4)n3)CC2)cc1         WEE2                     0
10  CC(=O)Nc1nc2cnc(Nc3cc(NC(=O)c4cccc(C5(C#N)CC5)c4Cl)ccc3C)nc2s1         WEE2                    32
11  COC(=O)Nc1nc2cc(Oc3ccc(NC(=O)Nc4cc(C(F)(F)F)ccc4F)cn3)ccc2[nH]1.Cl.Cl         WEE2                     0
12  O=C(Nc1ccccc1F)NC1CCN(c2ccnc(Nc3ccc(F)cc3)n2)CC1         WEE2                     0
13  Fc1ccc(-c2ncn(C3CCNCC3)c2-c2ccnc(Oc3ccc(-c4ccccc4)cc3)n2)cc1         WEE2                    58
14  COc1cccc(-c2ccc3c(NC(=O)C4CC4)n[nH]c3n2)c1         WEE2                    15
15  CN1CCN(Cc2cccc(-c3ccc4c(Nc5ccc(Oc6ccccc6)cc5)ccnc4c3)c2)CC1         WEE2                     0
16  Cc1ccc(S(=O)(=O)Nc2ccc(Nc3nccc(Nc4cccc5[nH]ncc45)n3)cc2)cc1         WEE2                     8
